Molecular target: P2X4 receptor (Homo sapiens)
Sequence (Q99571 1-388): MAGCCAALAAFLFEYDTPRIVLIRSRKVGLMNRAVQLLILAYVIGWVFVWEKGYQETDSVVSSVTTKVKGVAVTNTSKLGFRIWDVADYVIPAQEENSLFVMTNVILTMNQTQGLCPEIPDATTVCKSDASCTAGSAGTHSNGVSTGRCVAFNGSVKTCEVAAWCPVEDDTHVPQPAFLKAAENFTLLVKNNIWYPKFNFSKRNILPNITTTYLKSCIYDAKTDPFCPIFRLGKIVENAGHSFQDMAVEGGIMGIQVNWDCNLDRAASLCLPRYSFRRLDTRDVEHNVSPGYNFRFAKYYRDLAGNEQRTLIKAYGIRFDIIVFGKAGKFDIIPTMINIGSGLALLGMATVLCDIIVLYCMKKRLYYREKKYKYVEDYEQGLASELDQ
Experiment: Intracellular calcium assay (Fura-2 AM) of ATP-induced calcium influx in 1321N1 cells stably expressing human P2X4 receptors
Format: cell-based
Settings: Table 26, Example 31; same manner as in Example 30; read-out: IC50 (P2X4 receptor antagonism)
pIC50: −log10 of the molar value. Structures can show the parent of a compound that is named as a salt.
quantity kind: pIC50

molecule=O=c1[nH]c2c3c(ccc2n(-c2cccc(NS(=O)(=O)c4cccc5ccccc45)c2)c1=O)CCCC3 target="P2X4 receptor (Homo sapiens)" reported_value=5.59
molecule=O=c1[nH]c2c3c(ccc2n(-c2cccc(NS(=O)(=O)c4cccs4)c2)c1=O)CCCC3 target="P2X4 receptor (Homo sapiens)" reported_value=5.74
molecule=Cc1nnc(-c2cccc(-n3c(=O)c(=O)[nH]c4c5ccccc5ccc43)c2)o1 target="P2X4 receptor (Homo sapiens)" reported_value=5.17
molecule="O=c1[nH]c2c3c(ccc2n(-c2cccc(NS(=O)(=O)c4cccc5cccnc45)c2)c1=O)CCCC3 [Example 28, hydrochloride]" target="P2X4 receptor (Homo sapiens)" reported_value=5.72
molecule=O=c1[nH]c2c3c(ccc2n(-c2cccc(NS(=O)(=O)c4ccccc4)c2)c1=O)CCCC3 target="P2X4 receptor (Homo sapiens)" reported_value=6.10
molecule=O=C(Nc1cccc(-n2c(=O)c(=O)[nH]c3c4c(ccc32)CCCC4)c1)c1ccccc1C(F)(F)F target="P2X4 receptor (Homo sapiens)" reported_value=5.11
molecule=O=C(Cc1ccccc1I)Nc1cccc(-n2c(=O)c(=O)[nH]c3c4ccccc4ccc32)c1 target="P2X4 receptor (Homo sapiens)" reported_value=6.06
molecule="Nc1cccc(-n2c(=O)c(=O)[nH]c3c4ccccc4ccc32)c1 [Example 13, hydrochloride]" target="P2X4 receptor (Homo sapiens)" reported_value=5.68

---

Quick reference for IC50 among some compounds
Biological target: P2X4 receptor (Homo sapiens, UniProt Q99571)
Experiment: Intracellular calcium assay (Fura-2 AM) of ATP-induced calcium influx in 1321N1 cells stably expressing human P2X4 receptors
Assay type: cell-based
Settings: Table 26, Example 31; same manner as in Example 30; read-out: IC50 (P2X4 receptor antagonism)
Where a name gives a salt, the structure may show the parent alone.
quantity kind: IC50 (nM)

compound="O=c1[nH]c2c3c(ccc2n(-c2cccc(NS(=O)(=O)c4cccc(Br)c4)c2)c1=O)CCCC3 [Example 23]" target="P2X4 receptor (Homo sapiens, UniProt Q99571)" quantity_kind=IC50 reported_value=1300
compound="O=c1[nH]c2c3c(ccc2n(-c2cccc(NS(=O)(=O)c4cccnc4)c2)c1=O)CCCC3 [Example 27, hydrochloride]" target="P2X4 receptor (Homo sapiens, UniProt Q99571)" quantity_kind=IC50 reported_value=3000
compound="Nc1ccc(-n2c(=O)c(=O)[nH]c3c4ccccc4ccc32)cc1 [Example 18, hydrochloride]" target="P2X4 receptor (Homo sapiens, UniProt Q99571)" quantity_kind=IC50 reported_value=5700
compound="O=c1[nH]c2c3ccccc3ccc2n(-c2ccc(O)cc2)c1=O [Example 17, sodium salt]" target="P2X4 receptor (Homo sapiens, UniProt Q99571)" quantity_kind=IC50 reported_value=2700

---

Quick reference for IC50 among some compounds
Biological target: P2X4 receptor (Homo sapiens, UniProt Q99571)
Experiment: Intracellular calcium assay (Fura-2 AM) of ATP-induced calcium influx in 1321N1 cells stably expressing human P2X4 receptors
Format: cell-based
Conditions: Table 25, Example 30; 1321N1 cells expressing human P2X4; compounds added 15 minutes before ATP; Fura-2 340/380 nm ratio; read-out: IC50 (P2X4 receptor antagonism)
Counter-ions that a name gives are not always drawn.
quantity kind: IC50 (µM)

compound="COc1cccc(-n2c(=O)c(=O)[nH]c3c4ccccc4ccc32)c1 [Example 3]" quantity_kind=IC50 unit_text=µM reported_value=6.6
compound="O=c1[nH]c2c3ccccc3ccc2n(-c2cccc(-c3nnn[nH]3)c2)c1=O [Example 2, sodium salt]" quantity_kind=IC50 unit_text=µM reported_value=0.46
compound="O=c1[nH]c2c3c(ccc2n(-c2cccc(NS(=O)(=O)c4ccccc4[N+](=O)[O-])c2)c1=O)CCCC3 [Example 9]" quantity_kind=IC50 unit_text=µM reported_value=2.1
compound="Nc1cccc(-n2c(=O)c(=O)[nH]c3c4c(ccc32)CCCC4)c1 [Example 7, hydrochloride]" quantity_kind=IC50 unit_text=µM reported_value=5.1

These measurements were taken from patent US8673915B2.
